B1: C20orf112 (parent)
chain: YANGGLNYSYRGYGALSSNLQPPA

Variants of: B1
Assay: protein stability index of a GFP-peptide fusion (GPS, HEK-293T) (PSI 1-6); higher = more stable;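 also: lentivirally expressed fusions sorted by FACS into six bins by GFP to DsRed ratio, PSI derived from sequencing read proportions per bin multiplied by bin number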
Conditions: c terminus: a fixed tail appended
Outcome: rule met for protein stability index of at least 2; rule not met for anything lower.

[[record]]
variant = "A2Q"
class_assignment = "rule not met"

[[record]]
variant = "A2D"
class_assignment = "rule met"

[[record]]
variant = "P22R"
class_assignment = "rule not met"

[[record]]
variant = "Q21Y"
class_assignment = "rule met"

[[record]]
variant = "P22N"
class_assignment = "rule met"

[[record]]
variant = "N7D"
class_assignment = "rule not met"

[[record]]
variant = "N7L"
class_assignment = "rule met"

[[record]]
variant = "L20R"
class_assignment = "rule not met"

[[record]]
variant = "A2L"
class_assignment = "rule not met"

[[record]]
variant = "R11T"
class_assignment = "rule not met"

[[record]]
variant = "L20K"
class_assignment = "rule met"

[[record]]
variant = "Y8K"
class_assignment = "rule not met"

[[record]]
variant = "Y13I"
class_assignment = "rule met"

[[record]]
variant = "S18N"
class_assignment = "rule not met"

[[record]]
variant = "N19S"
class_assignment = "rule met"

[[record]]
variant = "Y13G"
class_assignment = "rule not met"

[[record]]
variant = "R11F"
class_assignment = "rule met"

[[record]]
variant = "Y1R"
class_assignment = "rule met"

[[record]]
variant = "P22L"
class_assignment = "rule met"

[[record]]
variant = "S17G"
class_assignment = "rule met"

[[record]]
variant = "Y13E"
class_assignment = "rule not met"

[[record]]
variant = "S9P"
class_assignment = "rule not met"

[[record]]
variant = "N19K"
class_assignment = "rule met"

[[record]]
variant = "L6R"
class_assignment = "rule met"

[[record]]
variant = "L16H"
class_assignment = "rule met"

[[record]]
variant = "A2Y"
class_assignment = "rule met"

[[record]]
variant = "G14I"
class_assignment = "rule met"

[[record]]
variant = "S9R"
class_assignment = "rule not met"

[[record]]
variant = "Y10Q"
class_assignment = "rule not met"

[[record]]
variant = "Q21F"
class_assignment = "rule met"

[[record]]
variant = "Y10K"
class_assignment = "rule not met"

[[record]]
variant = "Y8T"
class_assignment = "rule not met"

[[record]]
variant = "P23D"
class_assignment = "rule met"

[[record]]
variant = "N7T"
class_assignment = "rule not met"

